system: cancer cell lines from the cancer cell line encyclopedia (CCLE); assay: Cell line profiling (CLiP) proliferation experiment; assay type: cell-based; conditions: Homo sapiens, TE-10, TE-10 (oesophagus, squamous_cell_carcinoma); read-out: Crossing Point
pIC50: −log10 of the molar value.

Molecule: CC(C)[C@@]12C[C@@H](O)[C@@](C)(O1)[C@@H]1CC[C@@H](C)[C@H]1[C@@H]2OC(=O)/C=C/c1ccccc1
pIC50: < 4.52

---

system: cancer cell lines from the cancer cell line encyclopedia (CCLE); assay: Cell line profiling (CLiP) proliferation experiment; format: cell-based; conditions: HT115, cell line HT115, large_intestine; read-out: Inflection Point
pEC50: −log10 of the molar value.

Molecule: CC(C)[C@@]12C[C@@H](O)[C@@](C)(O1)[C@@H]1CC[C@@H](C)[C@H]1[C@@H]2OC(=O)/C=C/c1ccccc1
Assayed System: cancer cell lines from the cancer cell line encyclopedia (CCLE)
pEC50: 4.91
